- Protocol Text: In vivo PK in CD-1 mice, plasma and brain by LC-MS/MS
- Condition Notes: male, CD-1, mouse, plasma, po, 10 mg/kg, AUCInf, 10 mg/kg PO, sampling 1, 3, 8 h
- Protocol: Initial in vivo PK studies to confirm oral bioavailability and brain exposure were conducted at Pharmaron (Beijing, China) in non‐fasted male CD‐1 mice (6–8 weeks of age; sourced from Vital River). […] The dose volume was 10 mL/kg. Next, we evaluated brain and plasma PK of 10 mg/kg (1 hour pre, IP, n = 3). […]
Measured Quantity: AUC(0-inf) (ng·h/mL)

• CC(C)NC(=O)N1CC[C@H](NC2=Nc3cc(F)ccc3N(CC(F)F)c3ccc(Cl)cc32)C1 = 280

----------
- Protocol Text: In vivo PK in CD-1 mice, plasma and brain by LC-MS/MS
- Condition Notes: male, CD-1, mouse, plasma, ip, 10 mg/kg, AUCInf, 10 mg/kg IP, sampling 0.5, 1, 3, 5 h
Measured Quantity: AUC(0-inf)

• CC(C)NC(=O)N1CC[C@H](NC2=Nc3cc(F)ccc3N(CC(F)F)c3ccc(Cl)cc32)C1 = 1170 ng·h/mL

----------
- Protocol Text: In vivo PK in CD-1 mice, plasma and brain by LC-MS/MS
- Condition Notes: brain, 10 mg/kg PO
Measured Quantity: AUClast/D (h·ng/mL per mg/kg)

• CC(C)NC(=O)N1CC[C@H](NC2=Nc3cc(F)ccc3N(CC(F)F)c3ccc(Cl)cc32)C1 = 5.74

----------
- Protocol Text: In vivo PK in CD-1 mice, plasma and brain by LC-MS/MS
- Condition Notes: male, CD-1, mouse, plasma, po, 1 mg/kg, AUCInf, 1 mg/kg PO
Measured Quantity: AUC(0-inf) (ng·h/mL)

• CC(C)NC(=O)N1CC[C@H](NC2=Nc3cc(F)ccc3N(CC(F)F)c3ccc(Cl)cc32)C1 = 31.6

----------
- Protocol Text: In vivo PK in CD-1 mice, plasma and brain by LC-MS/MS
- Condition Notes: male, CD-1, mouse, brain, po, 10 mg/kg, MRTInf_obs, 10 mg/kg PO
Measured Quantity: MRT inf (h)

- CC(C)NC(=O)N1CC[C@H](NC2=Nc3cc(F)ccc3N(CC(F)F)c3ccc(Cl)cc32)C1: 1.74

----------
- Protocol Text: In vivo PK in CD-1 mice, plasma and brain by LC-MS/MS
- Condition Notes: male, CD-1, mouse, plasma, po, 10 mg/kg, Tmax, 10 mg/kg PO, sampling 0.5, 1, 3, 5 h
Measured Quantity: Tmax

* CC(C)NC(=O)N1CC[C@H](NC2=Nc3cc(F)ccc3N(CC(F)F)c3ccc(Cl)cc32)C1 | 30 min

----------
- Protocol Text: In vivo PK in CD-1 mice, plasma and brain by LC-MS/MS
- Condition Notes: male, CD-1, mouse, brain, oral, 100 mg/kg
Measured Quantity: concentration at 8 h (ng/g)

• CC(C)NC(=O)N1CC[C@H](NC2=Nc3cc(F)ccc3N(CC(F)F)c3ccc(Cl)cc32)C1 = 14.3

----------
- Protocol Text: In vivo PK in CD-1 mice, plasma and brain by LC-MS/MS
- Condition Notes: male, CD-1, mouse, brain, intraperitoneal, 10 mg/kg
Measured Quantity: concentration at 1 h (ng/g)

• CC(C)NC(=O)N1CC[C@H](NC2=Nc3cc(F)ccc3N(CC(F)F)c3ccc(Cl)cc32)C1 = 112
